Reference source for all entries: ChEMBL document CHEMBL1255544

# Test system: Pseudomonas aeruginosa
# Run Description: Antimicrobial activity against Pseudomonas aeruginosa ATCC 27853 after 24 hrs by disk diffusion method; also: test concentration or dose not given here
# Format: functional
Measured diameter of the inhibition zone (DIZ) accompanies every entry in the list below.

| Chemical String | Unit Abbrev | diameter of the inhibition zone (DIZ) |
| --- | --- | --- |
| O=C(/C=C/c1ccccc1O)c1cc(Cl)c[nH]1 | mm | 18 |
| O=C(/C=C/c1ccco1)c1cc(Cl)c(Cl)[nH]1 | mm | 17 |
| CN(C)c1ccc(/C=N/NC(=O)c2cc(Cl)c[nH]2)cc1 | mm | 14 |
| COc1ccc(/C=C/C(=O)c2cc(Cl)c(Cl)[nH]2)cc1OC | mm | 17 |
| O=C(N/N=C/c1c(O)cccc1O)c1cc(Cl)c[nH]1 | mm | 14 |
| O=C(N/N=C/c1ccc(Cl)cc1)c1cc(Cl)c[nH]1 | mm | 15 |
| O=C(N/N=C/c1ccccc1)c1cc(Cl)c[nH]1 | mm | 14 |
| O=C(N/N=C/c1ccccc1)c1cc(Cl)c(Cl)[nH]1 | mm | 18 |
| COc1ccc(/C=C/C(=O)c2cc(Cl)c(Cl)[nH]2)cc1 | mm | 17 |
| O=C(N/N=C/c1ccc(Cl)cc1)c1cc(Cl)c(Cl)[nH]1 | mm | 16 |
| COc1ccc(/C=N/NC(=O)c2cc(Cl)c[nH]2)cc1 | mm | 14 |
| O=C(N/N=C/c1ccccc1O)c1cc(Cl)c[nH]1 | mm | 14 |
| COc1ccc(/C=N/NC(=O)c2cc(Cl)c(Cl)[nH]2)cc1OC | mm | 18 |
| COc1ccc(OC)c(/C=C/C(=O)c2cc(Cl)c[nH]2)c1 | mm | 15 |
| COc1ccc(/C=C/C(=O)c2cc(Cl)c[nH]2)cc1 | mm | 15 |
| O=C(/C=C/c1ccc(Cl)cc1)c1cc(Cl)c[nH]1 | mm | 16 |
| COc1ccc(OC)c(/C=N/NC(=O)c2cc(Cl)c(Cl)[nH]2)c1 | mm | 13 |
| O=C(/C=C/c1ccc(Cl)cc1)c1cc(Cl)c(Cl)[nH]1 | mm | 16 |
| COc1ccc(OC)c(/C=C/C(=O)c2cc(Cl)c(Cl)[nH]2)c1 | mm | 15 |
| CN(C)c1ccc(/C=N/NC(=O)c2cc(Cl)c(Cl)[nH]2)cc1 | mm | 15 |
| O=C(/C=C/c1ccco1)c1cc(Cl)c[nH]1 | mm | 17 |
| COc1ccc(/C=N/NC(=O)c2cc(Cl)c[nH]2)cc1OC | mm | 16 |
| O=C(N/N=C/c1ccco1)c1cc(Cl)c[nH]1 | mm | 15 |
| O=C(N/N=C/c1ccccc1O)c1cc(Cl)c(Cl)[nH]1 | mm | 18 |

----------
# Test system: Staphylococcus aureus
# Run Description: Antimicrobial activity against Staphylococcus aureus ATCC 25923 after 24 hrs by disk diffusion method; also: test concentration or dose not given here
# Type: functional
Below, each of the compounds is paired with its reported diameter of the inhibition zone (DIZ) value.

| Chemical String | Unit Abbrev | diameter of the inhibition zone (DIZ) |
| --- | --- | --- |
| COc1ccc(/C=C/C(=O)c2ccc(Cl)[nH]2)cc1OC | mm | 13 |
| O=C(N/N=C/c1ccccc1)c1cc(Cl)c[nH]1 | mm | 17 |
| COc1ccc(/C=N/NC(=O)c2cc(Cl)c[nH]2)cc1OC | mm | 20 |
| CN(C)c1ccc(/C=N/NC(=O)c2cc(Cl)c[nH]2)cc1 | mm | 10 |
| O=C(/C=C/c1ccccc1O)c1cc(Cl)c[nH]1 | mm | 16 |
| O=C(N/N=C/c1ccco1)c1cc(Cl)c[nH]1 | mm | 24 |
| COc1ccc(OC)c(/C=N/NC(=O)c2cc(Cl)c[nH]2)c1 | mm | 20 |
| O=C(/C=C/c1ccco1)c1cc(Cl)c(Cl)[nH]1 | mm | 25 |
| O=C(/C=C/c1ccco1)c1ccc(Cl)[nH]1 | mm | 15 |
| COc1ccc(/C=N/NC(=O)c2cc(Cl)c[nH]2)cc1 | mm | 18 |
| CN(C)c1ccc(/C=N/NC(=O)c2cc(Cl)c(Cl)[nH]2)cc1 | mm | 15 |
| O=C(N/N=C/c1ccccc1)c1cc(Cl)c(Cl)[nH]1 | mm | 16 |
| COc1ccc(/C=C/C(=O)c2cc(Cl)c[nH]2)cc1 | mm | 18 |
| O=C(N/N=C/c1ccc(Cl)cc1)c1cc(Cl)c(Cl)[nH]1 | mm | 24 |
| O=C(/C=C/c1ccc(Cl)cc1)c1cc(Cl)c[nH]1 | mm | 16 |
| COc1ccc(OC)c(/C=C/C(=O)c2cc(Cl)c(Cl)[nH]2)c1 | mm | 22 |
| O=C(N/N=C/c1ccccc1O)c1cc(Cl)c[nH]1 | mm | 17 |
| COc1ccc(/C=C/C(=O)c2ccc(Cl)[nH]2)cc1 | mm | 17 |
| COc1ccc(/C=N/NC(=O)c2cc(Cl)c(Cl)[nH]2)cc1OC | mm | 25 |
| O=C(/C=C/c1ccco1)c1cc(Cl)c[nH]1 | mm | 22 |
